# Tested on: hemolytic anemia
# assayDetails: autoimmune hemolytic anemia model, serum immunoglobulins
# Assay type: in vivo, NZB mice
# conditionInfo: 142 to 156 Days; 200 mg/kg, four doses over two weeks
Please provide measured IgM, % Change for the entries that follow.

{"molecule": "[O-]c1c(-c2ccccc2)sc2sc3c([n+]12)CCCC3 [Example 11]", "experimentalValue": "-31%"}

Required: IgM, % Change, one value per molecule below.
1. O=C(c1sc2sc3ccc(Cl)cc3[n+]2c1[O-])C(F)(F)F [D]
2. [O-]c1c(-c2ccccc2)sc2sc3ccccc3[n+]12 [A]
3. [O-]c1c(-c2ccc(Cl)cc2)sc2sc3ccc(Cl)cc3[n+]12 [B]

-- reply
1. +4%
2. +21%
3. -32%

* * *

# Tested on: hemolytic anemia
# assayDetails: autoimmune hemolytic anemia model, serum immunoglobulins
# Format: in vivo, NZB mice
# conditionInfo: 142 to 156 Days; 200 mg/kg, four doses over two weeks
measuredParameter: IgG, % Change (%)
Answers are plain numbers, in %.

See these solved cases before continuing.
{"cpdSmiles": "[O-]c1c(-c2ccccc2)sc2sc3c([n+]12)CCCC3", "experimentalValue": -50}
{"cpdSmiles": "[O-]c1c(-c2ccc(Cl)cc2)sc2sc3ccc(Cl)cc3[n+]12", "experimentalValue": -60}

// `[O-]c1c(-c2ccccc2)sc2sc3ccccc3[n+]12` : IgG, % Change value = -15

* * *

# Tested on: hemolytic anemia
# assayDetails: autoimmune hemolytic anemia model, serum immunoglobulins
# Assay type: in vivo, NZB mice
# conditionInfo: 1st Reading (156 Days); 200 mg/kg, four doses over two weeks
measuredParameter: IgM, 1st Reading
Answers are plain numbers.

Solved entries (count: 3):
{"cpdSmiles": "[O-]c1c(-c2ccccc2)sc2sc3ccccc3[n+]12", "IgM, 1st Reading": 176}
{"cpdSmiles": "O=C(c1sc2sc3ccc(Cl)cc3[n+]2c1[O-])C(F)(F)F", "IgM, 1st Reading": 190}
{"cpdSmiles": "[O-]c1c(-c2ccc(Cl)cc2)sc2sc3ccc(Cl)cc3[n+]12", "IgM, 1st Reading": 120}

Then this molecule:
Briefly, IgM, 1st Reading measured for `[O-]c1c(-c2ccccc2)sc2sc3c([n+]12)CCCC3` : 134
